- System: DoHH2 (lymphoma) cell line
- experimental details: DiOC6(3) flow evaluation of cell viability and apoptosis, DoHH2 (lymphoma) cell line
- Assay type: cell-based, human
- experimental conditions: Homo sapiens, DOHH-2, DoHH2 cells, average of repeats, read-out: Percentage Cell Viability, Averages
Entries and their measured viability at 50 µM follow.

[
  {
    "compound": "O=C(Nc1nc2c(c(-c3ccccc3Cl)n1)CN(Cc1ccccc1)CC2)c1cccc(Cl)c1Cl",
    "units symbol": "%",
    "viability at 50 µM": 77.5
  },
  {
    "compound": "CCCCNC(=O)c1cc2ccccc2c(-c2ccccc2Cl)n1",
    "units symbol": "%",
    "viability at 50 µM": 28.4
  },
  {
    "compound": "CC(C)C(=O)Nc1cc2ccccc2c(-c2ccccc2Cl)n1",
    "units symbol": "%",
    "viability at 50 µM": 76.1
  },
  {
    "compound": "CCC(C)C(=O)Nc1cc2ccccc2c(-c2ccccc2Cl)n1 (stereo not shown)",
    "units symbol": "%",
    "viability at 50 µM": 67.9
  },
  {
    "compound": "CCCCC(=O)Nc1cc2c(c(-c3ccccc3Cl)c1)CCN(C(=O)C(F)(F)F)C2",
    "units symbol": "%",
    "viability at 50 µM": 64.3
  },
  {
    "compound": "CCCCC(=O)Nc1nc2c(c(-c3ccccc3Cl)n1)CN(Cc1ccccc1)CC2",
    "units symbol": "%",
    "viability at 50 µM": 53.1
  },
  {
    "compound": "CC(C)NC(=O)c1cc2ccccc2c(-c2c(Cl)cccc2Cl)n1",
    "units symbol": "%",
    "viability at 50 µM": 82
  }
]

----------
- Test system: DoHH2 (lymphoma) cell line
- experimental details: DiOC6(3) flow evaluation of cell viability and apoptosis, DoHH2 (lymphoma) cell line
- Format: cell-based, human
- experimental conditions: Homo sapiens, DOHH-2, DoHH2 cells, average of repeats, read-out: Percentage Cell Viability, Averages
Here the recorded viability at 50 µM is given for each entry.

[
  {
    "input smiles": "CC(C)C(=O)Nc1cc2c(c(-c3ccccc3Cl)c1)CCN(C(=O)c1ccccc1)C2",
    "units symbol": "%",
    "viability at 50 µM": 67.6
  },
  {
    "input smiles": "CC(C)C(=O)Nc1cc2c(c(-c3ccccc3Cl)c1)CCN(C(=O)C(F)(F)F)C2",
    "units symbol": "%",
    "viability at 50 µM": 59.7
  },
  {
    "input smiles": "CC(C)NC(=O)c1cc2ccccc2c(-c2ccccc2Cl)n1",
    "units symbol": "%",
    "viability at 50 µM": 69.9
  },
  {
    "input smiles": "CCCC(=O)N1CCc2c(cc([N+](=O)[O-])cc2-c2ccccc2Cl)C1",
    "units symbol": "%",
    "viability at 50 µM": 71.3
  },
  {
    "input smiles": "CNC(=O)c1cc2ccccc2c(-c2ccccc2Cl)n1",
    "units symbol": "%",
    "viability at 50 µM": 75.7
  }
]
